# Tested on: Staphylococcus aureus
# ASSAY COMMENT: Antibacterial activity against methicillin-resistant Staphylococcus aureus clinical isolate 2 incubated for 16 hrs by broth microdilution method in presence of tiron
# Type: functional
# EXPERIMENTAL PARAMETERS: isolate 2, 16 h
Catalogue of MIC values
MEASURED ENDPOINT: MIC (µM)

- Oc1c(Cl)cc(Br)c2nc3cc(Br)c(Br)cc3nc12: 0.2
- Oc1ccc(Br)c2nc3cc(Br)c(Br)cc3nc12: 0.1
- Oc1ccc(I)c2nc3cc(Cl)c(Cl)cc3nc12: 0.2

---

# Tested on: Staphylococcus aureus
# ASSAY COMMENT: Antibacterial activity against methicillin-resistant Staphylococcus aureus clinical isolate 2 incubated for 16 hrs by broth microdilution method in presence of Cu2+
# Format: functional
# EXPERIMENTAL PARAMETERS: isolate 2, 16 h
I'd appreciate it if you marked entries MET when MIC is lower than 50 µM and NOT MET when it is not.

* Oc1c(Cl)cc(Br)c2nc3cc(Br)c(Br)cc3nc12 | NOT MET
* Oc1c(Br)cc(I)c2nc3cc(Cl)c(Cl)cc3nc12 | NOT MET
* CCCCCCCCCC(=O)N[C@@H](Cc1c[nH]c2ccccc12)C(=O)N[C@@H](CC(N)=O)C(=O)N[C@@H](CC(=O)O)C(=O)N[C@@H]1C(=O)NCC(=O)N[C@@H](CCCN)C(=O)N[C@@H](CC(=O)O)C(=O)N[C@H](C)C(=O)N[C@@H](CC(=O)O)C(=O)NCC(=O)N[C@H](CO)C(=O)N[C@@H]([C@H](C)CC(=O)O)C(=O)N[C@@H](CC(=O)c2ccccc2N)C(=O)O[C@@H]1C | MET
* Oc1ccc(Br)c2nc3cc(Br)c(Br)cc3nc12 | NOT MET
* Oc1cccc2cccnc12 | MET
* Oc1c(Br)cc(Br)c2nc3ccccc3nc12 | NOT MET
* CN(C)[C@@H]1C(O)=C(C(N)=O)C(=O)[C@@]2(O)C(O)=C3C(=O)c4c(O)cccc4[C@@](C)(O)[C@H]3C[C@@H]12 | MET

---

# Tested on: Enterococcus faecium
# ASSAY COMMENT: Antibiofilm activity against […]-resistant Enterococcus faecium ATCC 700221 assessed as biofilm eradication incubated for 24 hrs by CBD assay
# Format: functional
# EXPERIMENTAL PARAMETERS: Enterococcus faecium, ATCC 700221, 24 h
MEASURED ENDPOINT: MBC

- Oc1ccc(Br)c2nc3cc(Cl)c(Cl)cc3nc12: 100 µM
- CC(=O)N[C@@H](CS)C(=O)O: > 2000 µM
- Oc1c(Cl)cc(Br)c2nc3ccccc3nc12: 11.7 µM
- Oc1c(Br)cc(Cl)c2nc3ccccc3nc12: 7.8 µM
- Oc1c(Br)cc(I)c2nc3cc(Cl)c(Cl)cc3nc12: 0.2 µM
- Oc1c(I)cc(I)c2nc3ccccc3nc12: 23.5 µM

---

# System: Staphylococcus epidermidis
# ASSAY COMMENT: Antibacterial activity against methicillin-resistant Staphylococcus epidermidis ATCC 35984 assessed as biofilm eradication incubated for 24 hrs by CBD assay
# Type: functional
# EXPERIMENTAL PARAMETERS: Staphylococcus epidermidis, ATCC 35984, 24 h
I'd appreciate it if you marked entries met when MBC is lower than 20 µM and not met when it is not.

• Oc1c(I)cc(I)c2nccnc12 = not met
• CN[C@@H](CC(C)C)C(=O)N[C@H]1C(=O)N[C@@H](CC(N)=O)C(=O)N[C@H]2C(=O)N[C@H]3C(=O)N[C@H](C(=O)N[C@@H](C(=O)O)c4cc(O)cc(O)c4-c4cc3ccc4O)[C@H](O)c3ccc(c(Cl)c3)Oc3cc2cc(c3O[C@H]2O[C@@H](CO)[C@H](O)[C@@H](O)[C@@H]2O[C@@H]2C[C@@](C)(N)[C@@H](O)[C@@H](C)O2)Oc2ccc(cc2Cl)[C@H]1O = met
• Oc1c(I)cc(I)c2nc3ccccc3nc12 = not met
• Oc1c(I)cc(Cl)c2nc3ccccc3nc12 = not met
• Cc1nc2c(I)cc(I)c(O)c2nc1C = not met
• Oc1ccc(Br)c2nc3cc(Br)c(Br)cc3nc12 = not met
• CO[C@H]1/C=C/O[C@@]2(C)Oc3c(C)c(O)c4c(O)c(c(/C=N/N5CCN(C)CC5)c(O)c4c3C2=O)NC(=O)/C(C)=C\C=C\[C@H](C)[C@H](O)[C@@H](C)[C@@H](O)[C@@H](C)[C@H](OC(C)=O)[C@@H]1C = met
• Oc1c(Br)cc(Br)c2nc3ccccc3nc12 = not met
